Tested on: D54 ERlucT glycosylation luciferase reporter, luminescence, 24 h
METHOD_DESCRIPTION: N-linked glycosylation inhibitors, luciferase reporter, dose response, D54 ERlucT cells, luminescence, cherry-picks (AID 624491);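 also: signal gain reflects blocked N-linked glycosylation of a luciferase reporter; actives raise luciferase signal so AC26 marks activators of the reporter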
METRIC: AC26

The examples below pair each entry with its known result.
>  <MOLECULE>
CC1(C(=O)NCc2ccccc2)Cc2c(-c3cccc(C(N)=O)c3)ccnc2O1 (stereo not given)

>  <TARGET_OR_TEST_SYSTEM>
D54 ERlucT glycosylation luciferase reporter, luminescence, 24 h

>  <REPORTED_MEASUREMENT>
2100 nM

$$$$
>  <MOLECULE>
COc1ccc2c(c1)C(=O)N1[C@H]3c4cc(Br)ccc4OC[C@@H]3[C@H](c3ccccc3)[C@]1(C)C(=O)N2

>  <TARGET_OR_TEST_SYSTEM>
D54 ERlucT glycosylation luciferase reporter, luminescence, 24 h

>  <REPORTED_MEASUREMENT>
851 nM

$$$$
>  <MOLECULE>
C=CCn1cccc(/C=C/C(=O)c2ccc(C(C)(C)C)cc2)c1=S

>  <TARGET_OR_TEST_SYSTEM>
D54 ERlucT glycosylation luciferase reporter, luminescence, 24 h

>  <REPORTED_MEASUREMENT>
1290 nM

$$$$
>  <MOLECULE>
COc1ccccc1/C=C/C(=O)/C=C/c1ccccc1O

>  <TARGET_OR_TEST_SYSTEM>
D54 ERlucT glycosylation luciferase reporter, luminescence, 24 h

>  <REPORTED_MEASUREMENT>
696 nM

$$$$
>  <MOLECULE>
COc1ccc2cc(C)c3nnc(SCC(=O)Nc4nc(-c5ccc(F)cc5)cs4)n3c2c1

>  <TARGET_OR_TEST_SYSTEM>
D54 ERlucT glycosylation luciferase reporter, luminescence, 24 h

>  <REPORTED_MEASUREMENT>
2360 nM

$$$$

# ---- query molecule ----
Query string: Look up and state reported AC26 for COc1ccc(CCCNC(=O)C2Cc3c(-c4cccc(C(C)=O)c4)ccnc3O2)cc1 (stereo not given)
Result string: 12600 nM

Hello, the source for this data is PubChem BioAssay AID624491, in case you need it.
